- Tested on: KM12 colon
- test-summary: NCI tumour cell line growth inhibition, 48 h; in the data active means GI50 below about 0.43 µM; inactive means the rest
Response enum: active, inactive

Consider the following illustrative entries.
CCCN1C(=O)CSC1=Nc1ccc2cc3ccc(N=C4SCC(=O)N4CCC)cc3nc2c1    inactive
CC(C)(C)OC(=O)CN1CCc2c(sc3ncnc(N/N=C/c4cccc5ccccc45)c23)C1    inactive
CC1SC(c2c(Cl)cccc2Cl)N(NC(=O)C(O)c2ccccc2)C1=O (stereo unspecified)    inactive

Could you now consider this next compound?
What call does the record list for COc1ccc2c(c1)cn1c3ccc(O)cc3[nH]c(=O)c21 ?
active

----------
Here the recorded log10 of TGI is given for each entry.
- Test system: NCI-H226 lung
- test-summary: NCI tumour cell line growth inhibition, 48 h
Units before log transform: µM; reported quantity: TGI; transform: log10.

Some compounds with recorded log10 of TGI:
C=C1CC2(CCCC3(CC(=C)C(=O)O3)C2(C)C)OC1=O (stereo not given)    0.82
COc1ccc(C(=O)N(C(=O)N2CCN(c3ccccc3)CC2)S(=O)(=O)c2ccccc2)cc1    1.77
COc1ccc(C2c3cc4c(cc3OC(O)(CO)C2C(=O)O)OCO4)cc1 (stereo not given) (tested in a mixture with another compound)    1.68
c1cc[c]([Sn]([S]c2cccc3cccnc23)([S]c2cccc3cccnc23)[c]2ccccc2)cc1    0.03

Kindly review the next compound as well.
Returns the measured log10 of TGI for the input compound. Input: COc1ccc(N2C(=O)[C@@H]3[C@H](C2=O)c2[nH]c4ccccc4c2C2CCC(C(C)(C)C)C[C@@H]23)cc1 (stereo not given in full)
1.67

----------
- Tested on: LXFL 529 NSCLC
- test-summary: NCI tumour cell line growth inhibition, 48 h
readout-kind: TGI

I would be grateful if you could share the reported TGI for CC1(C)CC(=O)C(=[N+]=[N-])C(=O)C1 .
> 100 µM

For CC1CCP(=O)(c2ccccc2)CC1 (stereo not given) then?
> 100 µM

Proceed to O=S(=O)(O)c1cc(N=Nc2cc(S(=O)(=O)O)c3cccnc3c2O)ccc1/C=C/c1ccc(N=Nc2cc(S(=O)(=O)O)c3cccnc3c2O)cc1S(=O)(=O)O
> 100 µM

Subsequent entry: COc1cc(C)c(C)c(OC(=O)c2c(C)c(C)c(OC)c(C)c2OC)c1C
> 100 µM

Also CCOC(=O)C(=O)NCCCN1CCOCC1 ?
> 100 µM

----------
- Tested on: SF-539 CNS
- test-summary: NCI tumour cell line growth inhibition, 48 h
readout-kind: TGI (µM)
Record the value in µM, omitting the unit from your answer.

CC(=O)OC1CCC2(C)C(=CCC3C4CCC5(OC6CC(C)CN(C(C)=O)C6C5C)C(C)=C4C(=O)C32)C1 (stereo not given)    39.9

Now look at this entry.
State the recorded TGI for this entry: COC(CN(C=O)[C@@H](c1ccc(Cl)cc1)c1cc2ccccc2o1)OC
34.3

----------
- System: HT29 colon
- test-summary: NCI tumour cell line growth inhibition, 48 h
readout-kind: TGI (µM)
Expressed in µM, but write only the number.

C[C@@H](Oc1ccc2[nH]nc(/C=C/c3cnn(CCO)c3)c2c1)c1c(Cl)cncc1Cl    0.681
Cn1c(=O)cc(NCCc2ccccc2)[nH]c1=O    78.1
Cc1nc2c(n1CCN(C)C)C(=O)c1ccccc1C2=O    65.1

I am curious: what TGI value has been reported for CO[C@@]12C[C@H]3[C@@H]([C@@H](O)[C@@H](OC(=O)/C=C/c4ccccc4)[C@@]4(O)C(C)(C)CCC[C@]34C)[C@@H](C)C1=CC(=O)O2 ?
26.5

----------
- System: NCI-H226 lung
- test-summary: NCI tumour cell line growth inhibition, 48 h
Where a SMILES comes first, the peptide text is derived from it.
readout-kind: TGI

CCC(C)C(NC(=O)C1CCCN1C(=O)C(CC(C)C)NC(=O)C(CC(C)C)NC(=O)C(N)CC(C)C)C(=O)NC(C(=O)NCC(=O)NC(CC(N)=O)C(=O)NC(CC(C)C)C(=O)NC(CC(C)C)C(=O)NC(CC(C)C)C(N)=O)C(C)C (centres undefined) (H-LLLPIVGNLLL-NH2; configuration not given here)    > 50 µM

Entry under review: CC(=O)c1sc(Nc2ccc(Cl)c(Cl)c2)nc1C . Reported TGI?
> 100 µM

// repeat for Cc1ccc(CC(Cc2ccc(C)cc2C(=O)O)C(=O)O)cc1 (centres undefined) and report
> 100 µM

Try the compound CNC(=O)CNC(=O)C(Cc1ccc(NC(=O)CCCCC(C)=O)cc1)NC(=O)C(CCC(=O)OCc1ccccc1)NC(=O)OC(C)(C)C (centres undefined)
> 100 µM

Entry O=c1oc2ccccc2c(O)c1C(c1ccc2c(c1)Cc1ccccc1-2)c1c(O)c2ccccc2oc1=O please
> 100 µM

Then this compound: O=C(NNS(=O)(=O)c1ccc(F)cc1)c1cccnc1Nc1ccc(Cl)cc1Cl
96.9 µM

Next compound: CC(C)(CC#N)c1cc(CC(C)(C)c2cc(CC(C)(C)c3cc(C(C)(C)C4(C)OCCO4)no3)no2)no1
> 100 µM

Now this one: CC(C(=O)c1ccc(Cl)cc1)C1OC(=O)C(Cl)=C1Cl (centres undefined)
> 100 µM

Request: CC1CN=C(NS(=O)(=O)c2cc(C(=O)Nc3ccc(F)cc3)c(Cl)cc2S)NN1 (centres undefined)
> 100 µM

What do we get for O=S(=O)(NCCNc1cc(-c2cn(-c3ccccc3)nc2-c2cccc(O)c2)ccn1)c1ccc(Cl)cc1 ?
21.2 µM

What about this compound? COC(OC)C1OC(CO)C(n2cc(F)c(=O)[nH]c2=O)C1O (centres undefined)
> 100 µM

Further, for Cn1nc2ccc3nccc(N(CCO)CCO)c3c2n1 ?
> 100 µM

Can you handle O=C1c2ccn(CCCCN3CCCCC3)c2C(=O)c2c1c(O)c1ccccc1c2O next?
> 73.7 µM

Queued: CCCCN(CCCC)C(=O)C(=O)C(C)C(=O)CC (centres undefined)
> 100 µM

Another compound to check: CC1C=C[C@H](Sc2ccccc2)CC[C@@]1(C)O (some centres undefined)
> 100 µM

Then CCCCCCC#CC#Cc1cccc(=O)o1 ?
4.7 µM

Repeat for the following compound: O=C1c2ccccc2C(C2c3ccccc3C(=O)c3cc(Br)ccc32)c2ccc(Br)cc21 (centres undefined)
> 100 µM

----------
- System: SNB-75 CNS
- test-summary: NCI tumour cell line growth inhibition, 48 h; in the data active = GI50 below about 0.43 µM; inactive = the rest
Parameter call: string, one of active, inactive

Below, 3 compounds whose answers are already recorded.
O=S(=O)(NCCNc1cc(-c2cn(-c3ccccc3)nc2-c2cccc(O)c2)ccn1)c1ccc(Cl)cc1    inactive
COc1cc(NCc2ccccc2O)c2ncccc2c1    inactive
CO[C@@]12C[C@H]3[C@@H]([C@@H](O)[C@@H](OC(=O)/C=C/c4ccccc4)[C@@]4(O)C(C)(C)CCC[C@]34C)[C@@H](C)C1=CC(=O)O2    active

Hi, sorry to bother you, what did the test record for C/C1=C/C(=O)O[C@@H]2C[C@@H](CC[C@H](C)/C=C\C=C\CC1)O[C@@](OCCc1ccccc1)([C@@H]1CSC(=O)N1)C2 ?
active

Another compound to check: C#Cc1cccc(Oc2ccc(NC(=O)CCl)cc2)c1
inactive

Same lookup for [C-]#[N+][C@]12C(=O)[C@H](CCC1(C)C)C(C)(C)[C@H]1C(=O)N(C)c3cccc2c31 , please.
inactive

----------
Examples of compounds with documented GI50 follow.
- Tested on: SNB-75 CNS
- test-summary: NCI tumour cell line growth inhibition, 48 h

Known results for compounds:
Cc1cccc2c1O/C(=C\c1ccc([N+](=O)[O-])o1)C2=O    1.64 µM
Cc1ccc(C2C3=C(N=c4s/c(=C/c5ccc(Br)cc5)c(=O)n42)c2ccc4ccccc4c2OCC3)cc1 (stereo not drawn)    > 100 µM

Now take the following compound into account.
What value of measured GI50 is listed for C/C1=C\C/C=C(\C)[C@H]2CC(CC/C(C)=C/CC1)[C@](C)(C=O)O2 ?
> 100 µM

----------
Documented TGI across a set of compounds
- System: SK-MEL-28 melanoma
- test-summary: NCI tumour cell line growth inhibition, 48 h

Previously resolved entries follow.
NC(=S)N1N=C(c2ccccc2O)CC1c1ccccc1 (stereo not given)    58.5 µM
N#CC(C(=N/NC(N)=S)/C(=N/NC(N)=S)C(C#N)c1ccc(Cl)cc1)c1ccc(Cl)cc1 (stereo not given)    > 100 µM
O=C1/C(=C/c2ccccc2)CCc2ccccc21    38.3 µM
Cn1c2ccccc2n2c3ccccc3c(=O)c(C#N)c12    > 100 µM
CC(C)(CC#N)c1cc(CC(C)(C)c2cc(CC(C)(C)c3cc(C(C)(C)C4(C)OCCO4)no3)no2)no1    > 100 µM

Please report the recorded TGI for COc1ccc(NC(=O)CC(=O)N/N=C/c2ccc(N(CCC#N)S(=O)(=O)c3ccccc3)cc2)cc1 .
> 100 µM

Can you handle CCC1(N=[N+]=[N-])C(=O)c2ccccc2N(c2ccccc2)C1=O (stereo not given) next?
> 100 µM

// same read-out, input: OCC#Cc1ccccc1C#Cc1ccc(C#Cc2ccccc2C#CCO)s1
46.8 µM

Query CCCCCCC#CC#Cc1cccc(=O)o1 next
10.7 µM

Request: CS(=O)(=O)CCn1c(=O)c(Oc2ccc(F)cc2F)cc2cnc(NC3CCOCC3)nc21
> 25 µM
